system: Wolbachia pipientis; test: Anti-Wolbachia Cell-Based Screen; format: functional; design: scale not given: in the data most compounds retested in dose-response had high values; conditions: 5 µM
In all, about 48,000 compounds went through this assay and about 13,000 (27%) showed an effect of 50% or more. Some of the results follow.
ASSAY_METRIC: Percent Effect
Note to self: number, then unit, no commentary.

Guide cases for Percent Effect, answers given:
MOLECULE: CCCS(=O)(=O)N1CCC(NCc2c(C)nn(C)c2OC)CC1
TESTED_TARGET: Wolbachia pipientis
Percent Effect: -2.561%
//
MOLECULE: COc1c(CNC2CCN(c3ncccn3)CC2)c(C(C)C)nn1C
TESTED_TARGET: Wolbachia pipientis
Percent Effect: -7.484%
//
MOLECULE: CCC(CNC(=O)c1ccco1)N1CCc2ccccc2C1 (stereo unspecified)
TESTED_TARGET: Wolbachia pipientis
Percent Effect: 8.519%

Item COc1c(CNC2CCN(c3ncccn3)CC2)c(C)nn1C has what recorded Percent Effect?
109.2%

// query Percent Effect value for entry O=C(CC1CCc2ccccc21)NC1(C(=O)O)CCOCC1 (stereo unspecified)
-1.321%

# query: Percent Effect of entry COc1c(CNC2CCN(CC(=O)NC3CC3)CC2)c(C)nn1C
-12.1%

---

Measured Percent Effect, listed per entry for reference.
system: Wolbachia pipientis; test: Anti-Wolbachia Cell-Based Screen; type: functional; design: scale not given: in the data most compounds retested in dose-response had high values; settings: 5 µM
Out of some 48,000 compounds screened, about 13,000 (27%) showed an effect of 50% or more. This is one part of the list.
Unit % implied. Number only.

Observe how each entry below is paired with its result.
COMPOUND: CC(=O)N1CC=C(n2c(=O)[nH]c3ccccc32)CC1
UNITS_TEXT: %
Percent Effect: 120.7

COMPOUND: Cc1cccc(CCC(=O)N2CCCC(c3cc(C(N)=O)[nH]n3)C2)c1 (stereo unspecified)
UNITS_TEXT: %
Percent Effect: 2.373

COMPOUND: Cl.O=C(NC1CCCC1)C1(Cc2cc(C3CCOC3)no2)CCNCC1 (stereo unspecified)
UNITS_TEXT: %
Percent Effect: 131.3

May I ask what Percent Effect has been recorded for CC(C)(C)c1noc(OCC(=O)NC2CCCC2)n1 ?
-14.46

Please report the recorded Percent Effect for NC(=O)c1cc(C2CCCN(CCc3ccccn3)C2)n[nH]1 (stereo unspecified) .
-3.119

GET /values?readout=Percent Effect&item= O=C1C(NCc2nnc3n2CCCC3)CCN1c1ccccc1 (stereo unspecified)
4.078

# Percent Effect lookup, item C[C@@H]1CN(Cc2cc(C3CCCCC3)no2)CC[C@]1(C)O
4.197

Reported Percent Effect, compound NC(=O)c1cc(C2CCCN(C(=O)CCc3ccncc3)C2)n[nH]1 (stereo unspecified) : ____
120

Please look up its Percent Effect: CC(=O)N1CCN(C(=O)c2c(Cl)c3ccccc3n2C)CC1
8.743

Dear colleague, I am looking for the recorded Percent Effect of the following compound: CC1CCN(C(=O)C2(Cc3cc(C4CCOC4)no3)CCNCC2)CC1.Cl (stereo unspecified)
189.1

# input compound: NC(=O)c1cc(C2CCCN(C(=O)CCc3ccsc3)C2)n[nH]1 (stereo unspecified) ; wanted: its Percent Effect
-0.264

---

tested on: Wolbachia pipientis; assay: Anti-Wolbachia Cell-Based Screen; type: functional; set-up: scale not given: in the data most compounds retested in dose-response had high values; settings: 5 µM
The campaign covered roughly 48,000 compounds. About 13,000 (27%) showed an effect of 50% or more. This is one part of the list.
ASSAY_METRIC: Percent Effect (%)
The reply should contain only the number, in %.

COMPOUND: CNc1nc(C2CCCCN2C(=O)COC)nc2c1CN(C)CC2 (centres undefined)
TESTED_TARGET: Wolbachia pipientis
Percent Effect, %: 112

Value lookup for Percent Effect; key = Cc1cc(C)c(C(=O)N2CCOC(c3cccs3)C2)c(=O)[nH]1 (centres undefined)
-5.418

For COC(=O)N1C[C@H]2CC[C@@H]1CN(Cc1cscn1)C2 , what is its reported Percent Effect?
-5.87

Sample CCS(=O)(=O)N1CCOC2(CCCN(c3cccc(C#N)c3)C2)C1 (centres undefined) — what was its Percent Effect?
-4.449

Tell me the measured Percent Effect of O=C(c1ccncc1)N1CCc2[nH]nc(Nc3ccccc3)c2C1 , please.
110.2

Fill in the blank: the reported Percent Effect of COCCC1(CNC(=O)NCC2CCCN(C)C2)CCC1 (centres undefined) is ____.
8.648

---

system: Wolbachia pipientis; experiment: Anti-Wolbachia Cell-Based Screen; format: functional; parameters: scale not given: in the data most compounds retested in dose-response had high values; settings: 5 µM
Screen size: about 48,000 compounds; about 13,000 (27%) showed an effect of 50% or more. The list shows a part of the results.
Reported Percent Effect values for the following compounds.
A number alone suffices; assume %.

Example compounds with recorded Percent Effect:
COMPOUND: COc1ccccc1N1CCC(CNS(=O)(=O)c2cccc(C#N)c2)C1 (configuration not stated)
UNITS_TEXT: %
Percent Effect: 87.58
//
COMPOUND: COc1cccc(N2CCC(CNc3cc(C)nc4ncnn34)C2)c1 (configuration not stated)
UNITS_TEXT: %
Percent Effect: -5.133
//
COMPOUND: CCC(CNC(=O)c1nc(=O)[nH][nH]1)Oc1ccccc1C(F)(F)F (configuration not stated)
UNITS_TEXT: %
Percent Effect: -3.223
//
COMPOUND: COCc1cn(C2CCN(C(=O)c3ccc(F)c(C)c3)CC2)nn1
UNITS_TEXT: %
Percent Effect: 14.23
//
COMPOUND: Clc1cccc(-c2noc(CCN3CCN(c4ccncc4)CC3)n2)c1
UNITS_TEXT: %
Percent Effect: 4.288
//
COMPOUND: COc1cccc(N2CCC(CNCc3cccc(C#N)c3)C2)c1 (configuration not stated)
UNITS_TEXT: %
Percent Effect: 82.37

# input compound: CC(C)C(C)NC(=O)c1cccn1Cc1cccnc1 (configuration not stated) ; wanted: its Percent Effect
-0.09991

Requested field: Percent Effect. Item: Cc1nc(NC(=O)N2CCCC(N(C)C)C2)nn1C (configuration not stated)
-14.3

Report Percent Effect for N#Cc1ccc(CNCC2CCN(CCO)CC2)cc1 please.
-8.382

Recorded Percent Effect for COC(=O)c1cccn1C1CCN(Cc2cccnc2)CC1 , please?
126.9

# query: Percent Effect of entry COc1ccc(CNCC2CCN(c3ccccc3OC)C2)cc1O (configuration not stated)
114.3

Param item = CC1=NN(c2ccc(C(=O)N3CCCC(n4ccnc4)C3)cc2)CC1 (configuration not stated) ; retrieve measured Percent Effect.
-6.024

---

system: Wolbachia pipientis; test: Anti-Wolbachia Cell-Based Screen; type: functional; set-up: scale not given: in the data most compounds retested in dose-response had high values; conditions: 5 µM
Out of some 48,000 compounds screened, about 13,000 (27%) showed an effect of 50% or more. Some of the results follow.
# Percent Effect listing for each entry below
Provide the reading as a plain figure in %.

Some solved entries appear below for comparison.
COMPOUND: CC1c2ncc(CN3CCN(C)CC3)n2CCN1Cc1ccc(F)cc1.O=C(O)C(F)(F)F.O=C(O)C(F)(F)F.O=C(O)C(F)(F)F (stereo not drawn)
UNITS_TEXT: %
Percent Effect: 94.11
//
COMPOUND: COCCc1noc(CN2C(=O)OC[C@@H]2C(C)C)n1
UNITS_TEXT: %
Percent Effect: -4.227
//
COMPOUND: CCn1c(CNC(=O)Nc2nc(C)c(C)o2)nc2ccccc21
UNITS_TEXT: %
Percent Effect: 89.34
//
COMPOUND: CCOC(=O)CC(C)NC(=O)c1cn(Cc2ccccc2F)nn1 (stereo not drawn)
UNITS_TEXT: %
Percent Effect: -6.246
//
COMPOUND: O=C(Cc1cccc(F)c1)NCCNCc1ccco1
UNITS_TEXT: %
Percent Effect: -5.047
//
COMPOUND: CCc1nnc(NC(=O)N(CCOC)Cc2ccc(C)o2)s1
UNITS_TEXT: %
Percent Effect: -17.47
//
COMPOUND: CC(C)(O)CCc1ccc(C(=O)N2CCN(CC(F)(F)F)CC2)cc1
UNITS_TEXT: %
Percent Effect: 0.1309
//
COMPOUND: CNC(=O)C(C)NC(=O)c1ccc(Oc2cccnc2)cc1 (stereo not drawn)
UNITS_TEXT: %
Percent Effect: -6.707

Which measured Percent Effect value corresponds to NCC1CCN(c2nc(C3CCCC3)nc3c2CCNCC3)C1 (stereo not drawn) ?
9.164

I would be grateful if you could share the reported Percent Effect for CCS(=O)(=O)N1CCC2(CN(Cc3ccc(C)o3)C2)C1 .
-24.8

Please report the recorded Percent Effect for F[C@@H]1CN(CC2CC2)C[C@@H]1OCc1nc2ccc(C(F)(F)F)cc2[nH]1 .
-10.92

// returns reported Percent Effect for input COCc1noc(CNc2nc(C3CCCC3)nc3c2CCNCC3)n1
-2.329

Quick one: Percent Effect of COc1ccccc1N1CCN(C(=O)Cn2nccc2C)CC1(C)C ?
4.467

Would you mind telling me what Percent Effect value was observed for CNc1ccnc(N2CCCC(C(=O)c3ccccn3)C2)n1 (stereo not drawn) ?
-24.75

Quick one: Percent Effect of O=S(=O)(CCN1CCCC1Cn1cncn1)c1ccccc1 (stereo not drawn) ?
102.1

Entry under review: Cc1ccc(CN2CC3(CCN(S(=O)(=O)c4ccccc4)C3)C2)o1 . Reported Percent Effect?
-20.52

If you can, please state the reported Percent Effect value of COCCc1noc(CN(C)c2nccc(C)n2)n1 .
10.01

// returns reported Percent Effect for input CS(=O)(=O)N1CC[C@]2(O)CCN(c3cc(C#N)ccn3)C[C@@H]2C1
-2.197

Requested field: Percent Effect. Item: CCN(CCNCc1cccc(C#N)c1)C1CC1
-10.23

Value lookup for Percent Effect; key = CC1c2ncc(CN3CCN(C)CC3)n2CCN1Cc1cccnc1.O=C(O)C(F)(F)F.O=C(O)C(F)(F)F.O=C(O)C(F)(F)F.O=C(O)C(F)(F)F (stereo not drawn)
3.329

Which Percent Effect value is on record for Cc1nccn1-c1ccc(C(C)NCc2cc[nH]n2)cc1 (stereo not drawn) ?
-2.741

Return reported Percent Effect; argument: CSCCC(NC(=O)c1ccc2ccccc2n1)C(=O)N(C)C (stereo not drawn)
-7.928

If you can, please state the reported Percent Effect value of CCCSc1ncc(Cl)c(C(=O)NC(CCSC)C(=O)O)n1 (stereo not drawn) .
125.3

Return reported Percent Effect; argument: CSCCC(NC(=O)c1ccc2ccccc2n1)C(=O)O (stereo not drawn)
-5.769

State the recorded Percent Effect for this entry: CCN(Cc1ccoc1)C(C(N)=O)c1ccc(Br)cc1 (stereo not drawn)
13.69

Would you kindly share the measured Percent Effect for CC1CCN(CCCNS(=O)(=O)Cc2ccccc2F)CC1 ?
-5.574
